Each recorded value in this set is attributed to the nanobody polyreactivity screen of Harvey et al. (2022).

test: yeast display, Sf9 membrane polyspecificity reagent, FACS + sequencing; frameworks hold sequencing errors

Sequence record	polyreactivity (PSR sort gate)
QVQLVESGGGLVQAGGSLRLSCADSGSIFEFNTMGWYRQAPGKERELVAAISSADTTNYADSVKGRFTISRDNAKNTVYLQMNSLKPEDTAVYYCNKELHLSATLRVLGFDYWGQGTQVTVSS	low polyreactivity
QVQLVESGGGLVQAGGSLRLTCAASGLTFGGNAMGWYRQAHRKERELVAAISWSDDTTDYADSVKGRFTISRDNAKNSVYLQMNSLNPEDTAIYYCAARLPFEHVDYWGQGTQVTVSS	low polyreactivity
QVQLVESGGGLVQAGGSLRLSCAASGSTFGPNPMGWYRQAPGKERELVAAISRAGRTYYADSVKGRFTISRDNAKNTVYLQMNSLKPEDTAVYYCNAGRSYHWRAGGEYDYWGQGTQVTVSS	low polyreactivity
QDQLVESGGGLVQAGGSLRLSCAASGLTFGYYAMGWYRQAPGKERELVAAINSGGSTYYADSVKGRFTISRDNAKNTVYFQMNSLKPEDTAVYYCNATLDLYDSVSYTGPGMDYWGQGTQVTVSS	low polyreactivity
QVQLVESGGGLVQAGGSLRLSCAASGRTFSQYAMGWYRQAPGKERELVAAISWSGDSTYYADSVKGRFTISRDNAKNTVYLQMNSLKPEDTAVYDCAADRRVETPRYDYWGQGTQVTVSS	low polyreactivity
QDQLVESGGGLVQAGGSLRLSCAASGLISSINAMGWYRQAPGKERELVAAISFSGGRTYYADSVKGRFTISRDNAKNTVYLQMNSLKPEDTAVYYFNAVSGGHRSRYGYWGQGTLVTVSS	high polyreactivity
QVQLVESGGGLVQAGGSLRLSCAASGRIFTPNAMGWSRQAPGKERELVAAITWSGDNTYADSVKGRFTISRDNAKNTVYLQMNSLKPEDTAVYYCAAAYGYGHKKYGYWGQGTQVTVSS	low polyreactivity
QVQLVESGGGLVQAGGSLRLSCAASGRTFIKYARGWYRPAPGKERELVAAISRNGGSTNYADSVKGRFTISRDNAKNTVYFQMNSLKPEDTAVYYCAAVGTVSRTVGYNYWGQGTQVTVSS	high polyreactivity
QVQLVESVGGLVQAGGSLRLSCAASGSIFRVYAMGWYRQAPGKERELVATISGSAGRTYYADSVKGRFTISRDNAKNTVYLQMNSLKPEDTAVYYCAARWYKEYYWGQGTQVTVSS	high polyreactivity
QDQLVESGGGLVQAGGSLRLSCAASGSTFKYNAMGWYRQAPGQERELVAAITSGGSTDYADSVKGRFTISRDNAMNHVYFQMNLLNPEDTAVYYCNDDIYPHDGYPWQGDYDYWGQGTQVTVSS	low polyreactivity

----------
assay: yeast display, Sf9 membrane polyspecificity reagent, FACS + sequencing; frameworks hold sequencing errors

Sequence record	polyreactivity (PSR sort gate)
QVQLVESGGCLVQAGGSLRLSCAASGFTFYRSVMGWYRQAPGKERELVAAITSDGGSTYYAVSVKGRFTISRDNGKNTVYLQMNSLKPEDTAVYYCSADASTWYTEEYWGQGNQVTVSS	low polyreactivity
QVQLVESGGGLVQAGGSLRLSCAASGSTFGKYAMGWYRQAPGKERELVATITVSGGNTNYADSVKGRFTISRDNAKNTVYLQMNSLKPEDTAVYYCAARNYVAGHKYIMNYWGQGTQVNVSS	low polyreactivity
QVQLVESGGGLVQAGGSLRLSCAASGGIFRYSAMGWYRQAPGKERELVATDGDTYYADSVKGRFTISRDNAKNTVYLQLNSLKPEDTAVYYCAAEPVRYYAMEYWGQGTQVTVSS	low polyreactivity
QVQLVESGGGLVQAGGSLRLSCAASGRTSLGYDMGWYRPAPGQEGELVAAITRSGGSTYYADSVKGRFTISRDNAKNTVYLQMNSLKPEDTAVYYCNRVLPHPDGYGVGARGYWGKGTQVTVSS	high polyreactivity
QVQLVESGGGLVQAGGSLRLSCAASGTTIETYASGWYRQAPGKERELVATITSGGSTYYAYSVKGRFTISRDTAKITVYLQMNSLKPEDTSVYYCAAGRYGGKHVWYYYWGQGTQVTVSS	high polyreactivity
QVQLVESGGGLVQAGGSLRLSCAASGRTFGGNTMGWYRQAPGKERELVAAISFSGGSTYYADSVKGRFTISRDNAKNTVYLQMNSLKPEDTAVYYCAKDPITATTLDERVYYWGQGTQVTVSS	low polyreactivity
QVQIVESGGGVVQAGGSLRLSCAASGYILDRNSMGWYRQAPGKERELVAVISWGGTRTYYADSVKGRFTISRDNAKNTVSLQMNSLKPVDTAVYYCNGKGWYYKYDYWGQGTQVTVSS	high polyreactivity
QVQLVESGGGLVQAGGSLRLSCADSGSTFLYYAIVWYRQAPGKERELVASITGSGSNTYYADSVKGRFTISRDNAKNTVYLQMNSLKPEDTAVYYCASDPQSDIPSWLWYWGEYDYWGQGTQVTVSS	low polyreactivity
